quantity measured: melting point

1) CCC(C)(Oc1ccc(OCc2cc(-c3ccc(O)cc3)no2)cc1)C(=O)O (stereo not drawn) [Example 4]
142 to 144 °C
2) CC(C)(Sc1ccc(OCc2cc(-c3ccc(C(F)(F)F)cc3)no2)cc1)C(=O)O [Example 14]
120 to 122 °C

Shifting focus to the molecule that follows.
Report melting point for CC(C)(Oc1ccc(OCc2cc(-c3ccc(-c4ccccc4)cc3)no2)cc1)C(=O)O [Example 18] 168 to 170 °C
